The following compounds are listed with their measured GI50 values.
- Tested on: SN12C renal
- Procedure text: NCI tumour cell line growth inhibition, 48 h
Experimental readout: GI50

[
  {
    "Record smiles": "O=[N+]([O-])c1ccc(N2CCN(Cc3ccccc3)CC2)c2c1no[n+]2[O-]",
    "Experimental readout": "GI50",
    "Experimental value": "1630 nM"
  },
  {
    "Record smiles": "CN1CCN(Cc2ccc(-c3cc4ncnc(Nc5ccc(OCc6cccc(F)c6)c(Cl)c5)c4s3)o2)CC1",
    "Experimental readout": "GI50",
    "Experimental value": "3790 nM"
  },
  {
    "Record smiles": "C=C1C(=O)O[C@@H]2C[C@@H]1CC[C@]1(C)O[C@H]1CC[C@@]1(C)O[C@@H]1CC[C@@]2(C)O",
    "Experimental readout": "GI50",
    "Experimental value": "22500 nM"
  },
  {
    "Record smiles": "O=C1/C(=C/c2cccc([N+](=O)[O-])c2)COc2ccc(O)c(O)c21",
    "Experimental readout": "GI50",
    "Experimental value": "1160 nM"
  }
]

Where do these numbers come from? They come from PubChem BioAssay (NCI).
